system: Mycobacterium tuberculosis H37Rv; test: Mycobacterium tuberculosis H37Rv Inhibition Assay (Whole Cell Assay); assay type: cell-based; details: ATCC 25618 / H37Rv, H37Rv strain (ATCC25618), Middlebrook 7H9, six days at 37° C., resazurin fluorescence after 48 hours
# maps each entry to its MIC

[
  {
    "Molecule": "CCc1ccc([C@H]2C[C@@H](C(F)(F)F)n3ncc(C(=O)NCc4ccncc4)c3N2)cc1 (relative stereo)",
    "MIC": "> 2 µM"
  },
  {
    "Molecule": "CCc1ccc([C@H]2C[C@@H](C(F)(F)F)n3ncc(C(=O)NCc4cccc(F)c4)c3N2)cc1 (relative stereo)",
    "MIC": "≤ 1 µM"
  },
  {
    "Molecule": "CCc1ccc([C@H]2C[C@@H](C(F)(F)F)n3ncc(C(=O)NCc4ccc(C(F)(F)F)cc4)c3N2)cc1 (relative stereo)",
    "MIC": "≤ 1 µM"
  },
  {
    "Molecule": "CCc1ccc([C@H]2C[C@@H](C(F)(F)F)n3ncc(C(=O)NCc4ccc(C)nc4)c3N2)cc1 (relative stereo)",
    "MIC": "1 to 2 µM"
  },
  {
    "Molecule": "CCc1ccc([C@H]2C[C@@H](C(F)(F)F)n3ncc(C(=O)NCc4ccc(Cl)cc4)c3N2)cc1 (relative stereo)",
    "MIC": "≤ 1 µM"
  },
  {
    "Molecule": "CCc1ccc([C@H]2C[C@@H](C(C)(C)C)n3ncc(C(=O)NCc4ccc5c(c4)OCO5)c3N2)cc1 (relative stereo)",
    "MIC": "1 to 2 µM"
  }
]

---

tested on: Mycobacterium tuberculosis H37Rv; test: Mycobacterium tuberculosis H37Rv Inhibition Assay (Whole Cell Assay); type: cell-based; conditions: ATCC 25618 / H37Rv, H37Rv strain (ATCC25618), Middlebrook 7H9, six days at 37° C., resazurin fluorescence after 48 hours

[
  {
    "Compound": "COc1ccc(CNC(=O)c2cnn3c2NC(c2ccc(OC)cc2)CC3C(F)(F)F)cc1 (centres unmarked) [Example 54]",
    "Study target": "Mycobacterium tuberculosis H37Rv",
    "MIC": "> 2 µM"
  },
  {
    "Compound": "CCc1ccc([C@H]2C[C@@H](C(F)(F)F)n3ncc(C(=O)NCc4ccc(Cl)cn4)c3N2)cc1 (relative stereo) [Example 75]",
    "Study target": "Mycobacterium tuberculosis H37Rv",
    "MIC": "1 to 2 µM"
  },
  {
    "Compound": "Cc1ccc([C@H]2C[C@@H](C(F)(F)F)n3ncc(C(=O)NCc4ccc(F)c(F)c4)c3N2)cc1 (relative stereo) [Example 31]",
    "Study target": "Mycobacterium tuberculosis H37Rv",
    "MIC": "≤ 1 µM"
  },
  {
    "Compound": "O=C(NCc1ccc2c(c1)OCO2)c1cnn2c1N[C@@H](c1ccc(Br)cc1)C[C@H]2C(F)(F)F (relative stereo) [Example 22]",
    "Study target": "Mycobacterium tuberculosis H37Rv",
    "MIC": "≤ 1 µM"
  },
  {
    "Compound": "CCc1ccc([C@H]2C[C@@H](C(F)(F)F)n3ncc(C(=O)NCC4CCCCC4)c3N2)cc1 (relative stereo) [Example 5]",
    "Study target": "Mycobacterium tuberculosis H37Rv",
    "MIC": "≤ 1 µM"
  },
  {
    "Compound": "CCc1ccc([C@H]2C[C@@H](C(F)(F)F)n3ncc(C(=O)NCc4ccc(C)c(Cl)c4)c3N2)cc1 (relative stereo) [Example 9]",
    "Study target": "Mycobacterium tuberculosis H37Rv",
    "MIC": "≤ 1 µM"
  },
  {
    "Compound": "CCc1ccc([C@H]2C[C@@H](C(F)(F)F)n3ncc(C(=O)NCc4ncc(C)cc4F)c3N2)cc1 [Example 106]",
    "Study target": "Mycobacterium tuberculosis H37Rv",
    "MIC": "1 to 2 µM"
  },
  {
    "Compound": "CCc1ccc([C@H]2C[C@@H](C(C)C)n3ncc(C(=O)NCc4ccc(C)cc4)c3N2)cc1 (relative stereo) [Example 66]",
    "Study target": "Mycobacterium tuberculosis H37Rv",
    "MIC": "≤ 1 µM"
  },
  {
    "Compound": "Cc1ccc([C@H]2C[C@@H](C(F)(F)F)n3ncc(C(=O)NCC4CCCCC4)c3N2)cc1 (relative stereo) [Example 26]",
    "Study target": "Mycobacterium tuberculosis H37Rv",
    "MIC": "1 to 2 µM"
  },
  {
    "Compound": "CCc1ccc([C@H]2C[C@@H](C(F)(F)F)n3ncc(C(=O)NCc4cccc(C(F)(F)F)c4)c3N2)cc1 (relative stereo) [Example 14]",
    "Study target": "Mycobacterium tuberculosis H37Rv",
    "MIC": "1 to 2 µM"
  },
  {
    "Compound": "CCc1ccc([C@H]2C[C@@H](C(C)(C)C)n3ncc(C(=O)NCc4ccc(OC)cc4)c3N2)cc1 (relative stereo) [Example 35]",
    "Study target": "Mycobacterium tuberculosis H37Rv",
    "MIC": "≤ 1 µM"
  },
  {
    "Compound": "CCc1ccc([C@H]2C[C@@H](C(F)(F)F)n3ncc(C(=O)NCc4ccc(F)c(F)c4)c3N2)cc1 (relative stereo) [Example 16]",
    "Study target": "Mycobacterium tuberculosis H37Rv",
    "MIC": "≤ 1 µM"
  },
  {
    "Compound": "CCc1ccc([C@@H]2C[C@H](C(F)(F)F)n3ncc(C(=O)NCc4ccco4)c3N2)cc1 (single isomer, unassigned) [Example 7b]",
    "Study target": "Mycobacterium tuberculosis H37Rv",
    "MIC": "> 2 µM"
  },
  {
    "Compound": "CCc1ccc([C@H]2C[C@@H](C(F)(F)F)n3ncc(C(=O)NCc4cccc(C)c4)c3N2)cc1 (relative stereo) [Example 3]",
    "Study target": "Mycobacterium tuberculosis H37Rv",
    "MIC": "≤ 1 µM"
  },
  {
    "Compound": "CCc1ccc([C@H]2C[C@@H](C(F)(F)F)n3ncc(C(=O)NCc4ccc(OC)nc4)c3N2)cc1 (relative stereo) [Example 74]",
    "Study target": "Mycobacterium tuberculosis H37Rv",
    "MIC": "1 to 2 µM"
  },
  {
    "Compound": "CCc1ccc([C@H]2C[C@@H](C(F)(F)F)n3ncc(C(=O)NCc4ccc(F)c(C)n4)c3N2)cc1 [Example 105]",
    "Study target": "Mycobacterium tuberculosis H37Rv",
    "MIC": "≤ 1 µM"
  },
  {
    "Compound": "CCc1ccc([C@H]2C[C@@H](C(F)(F)F)n3ncc(C(=O)NCc4cccn4C)c3N2)cc1 (relative stereo) [Example 10]",
    "Study target": "Mycobacterium tuberculosis H37Rv",
    "MIC": "1 to 2 µM"
  },
  {
    "Compound": "CCc1ccc([C@H]2C[C@@H](C(F)(F)F)n3ncc(C(=O)NCc4ccc(F)c(C)n4)c3N2)cc1 (relative stereo) [Example 77]",
    "Study target": "Mycobacterium tuberculosis H37Rv",
    "MIC": "1 to 2 µM"
  },
  {
    "Compound": "CCc1ccc([C@H]2C[C@@H](C(F)(F)F)n3ncc(C(=O)NCc4ccc(F)cc4)c3N2)cc1 (relative stereo) [Example 58]",
    "Study target": "Mycobacterium tuberculosis H37Rv",
    "MIC": "≤ 1 µM"
  },
  {
    "Compound": "Cc1ccc(CNC(=O)c2cnn3c2N[C@@H](c2ccc(Br)cc2)C[C@H]3C(F)(F)F)cc1 (relative stereo) [Example 21]",
    "Study target": "Mycobacterium tuberculosis H37Rv",
    "MIC": "≤ 1 µM"
  },
  {
    "Compound": "CCc1ccc([C@H]2C[C@@H](C(F)F)n3ncc(C(=O)NCc4ccc5c(c4)OCO5)c3N2)cc1 (relative stereo) [Example 34]",
    "Study target": "Mycobacterium tuberculosis H37Rv",
    "MIC": "≤ 1 µM"
  },
  {
    "Compound": "COc1cccc(CNC(=O)c2cnn3c2N[C@@H](c2ccc(C)cc2)C[C@H]3C(F)(F)F)c1 (relative stereo) [Example 27]",
    "Study target": "Mycobacterium tuberculosis H37Rv",
    "MIC": "1 to 2 µM"
  },
  {
    "Compound": "Cc1ccc(C2CC(C(F)F)n3ncc(C(=O)NCc4ccccc4C(F)(F)F)c3N2)cc1 (centres unmarked) [Example 55]",
    "Study target": "Mycobacterium tuberculosis H37Rv",
    "MIC": "> 2 µM"
  },
  {
    "Compound": "CCc1ccc([C@H]2C[C@@H](C(F)(F)F)n3ncc(C(=O)NCc4ccc(F)cc4F)c3N2)cc1 (relative stereo) [Example 59]",
    "Study target": "Mycobacterium tuberculosis H37Rv",
    "MIC": "≤ 1 µM"
  },
  {
    "Compound": "CCc1ccc([C@H]2C[C@@H](C(F)(F)F)n3ncc(C(=O)NCc4ccc(C)o4)c3N2)cc1 (relative stereo) [Example 4]",
    "Study target": "Mycobacterium tuberculosis H37Rv",
    "MIC": "≤ 1 µM"
  },
  {
    "Compound": "COc1ccc(CNC(=O)c2cnn3c2N[C@@H](c2ccc(Br)cc2)C[C@H]3C(F)(F)F)cc1 (relative stereo) [Example 42]",
    "Study target": "Mycobacterium tuberculosis H37Rv",
    "MIC": "> 2 µM"
  }
]
